- Test system: Tubulin
- TEST_SUMMARY: Tubulin Data (Table 1)
- Assay type: biochemical
- STATED_CONDITIONS: ratio analog/paclitaxel for tubulin data
For each entry below, report its anal/PT (beside Tubulin Data) value.

Examples with answers:
COc1cccc(C(=O)O[C@H]2[C@@H]3[C@]4(OC(=O)C5CC5)CO[C@@H]4C[C@H](O)[C@@]3(C)C(=O)[C@H](OC(C)=O)C3=C(C)[C@@H](OC(=O)[C@H](O)[C@@H](NC(=O)c4ccccc4)c4ccccc4)C[C@]2(O)C3(C)C)c1
1.3
COc1ccc(OC)c(C(=O)O[C@H]2[C@@H]3[C@]4(OC(=O)C5CC5)CO[C@@H]4C[C@H](O)[C@@]3(C)C(=O)[C@H](OC(C)=O)C3=C(C)[C@@H](OC(=O)[C@H](O)[C@@H](NC(=O)c4ccccc4)c4ccccc4)C[C@]2(O)C3(C)C)c1
0.5
CC(=O)O[C@H]1C(=O)[C@@]2(C)[C@H]([C@H](OC(=O)c3cccc(N=[N+]=[N-])c3)[C@]3(O)C[C@H](OC(=O)[C@H](O)[C@@H](NC(=O)c4ccccc4)c4ccccc4)C(C)=C1C3(C)C)[C@]1(OC(=O)C3CC3)CO[C@@H]1C[C@@H]2O
0.08

I would be grateful if you could provide anal/PT (beside Tubulin Data) for each of the following entries.
1. COC(=O)OC12COC1CC(O)C1(C)C(=O)C(OC(C)=O)C3=C(C)C(OC(=O)C(O)C(NC(=O)c4ccccc4)c4ccccc4)CC(O)(C(OC(=O)c4cccc(Cl)c4)C21)C3(C)C (stereo not shown)
2. COc1cccc(C(=O)O[C@H]2[C@@H]3[C@]4(OC(=S)SC)CO[C@@H]4C[C@H](O)[C@@]3(C)C(=O)[C@H](OC(C)=O)C3=C(C)[C@@H](OC(=O)[C@H](O)[C@@H](NC(=O)c4ccccc4)c4ccccc4)C[C@]2(O)C3(C)C)c1
3. COC(=O)O[C@@]12CO[C@@H]1C[C@H](O)[C@@]1(C)C(=O)[C@H](OC(C)=O)C3=C(C)[C@@H](OC(=O)[C@H](O)[C@@H](NC(=O)c4ccccc4)c4ccccc4)C[C@@](O)([C@@H](OC(=O)c4cccc(OC)c4)[C@H]21)C3(C)C

a:
[0.4, 8.9, 0.9]

CC(=O)OC1C(=O)C2(C)C(O)CC3OCC3(OC(=O)C3CC3)C2C(OC(=O)c2ccc(F)cc2F)C2(O)CC(OC(=O)C(O)C(NC(=O)c3ccccc3)c3ccccc3)C(C)=C1C2(C)C (stereo not shown) has a reported anal/PT (beside Tubulin Data) of 0.2

====

- System: 116/VM46
- TEST_SUMMARY: 116/VM46 activity, resistant line (Table 1)
- Assay type: cell-based
- STATED_CONDITIONS: ratio 116/VM46 (resistant) to HCT116 (sensitive)
For each entry below, report its R/S ratio value.
Answers are plain numbers.

Examples with answers:
CSC(=S)O[C@@]12CO[C@@H]1C[C@H](O)[C@@]1(C)C(=O)[C@H](OC(C)=O)C3=C(C)[C@@H](OC(=O)[C@H](O)[C@@H](NC(=O)c4ccccc4)c4ccccc4)C[C@@](O)([C@@H](OC(=O)c4cccc(N=[N+]=[N-])c4)[C@H]21)C3(C)C
8.03
COC(=O)O[C@@]12CO[C@@H]1C[C@H](O)[C@@]1(C)C(=O)[C@H](OC(C)=O)C3=C(C)[C@@H](OC(=O)[C@H](O)[C@@H](NC(=O)c4ccccc4)c4ccccc4)C[C@@](O)([C@@H](OC(=O)c4cccc(C)c4)[C@H]21)C3(C)C
21
COC(=O)OC12COC1CC(O)C1(C)C(=O)C(OC(C)=O)C3=C(C)C(OC(=O)C(O)C(NC(=O)c4ccccc4)c4ccccc4)CC(O)(C(OC(=O)c4cccc(Cl)c4)C21)C3(C)C (stereo not shown)
37
CC(=O)OC1C(=O)C2(C)C(O)CC3OCC3(OC(=O)C3CC3)C2C(OC(=O)c2ccc(Cl)cc2Cl)C2(O)CC(OC(=O)C(O)C(NC(=O)c3ccccc3)c3ccccc3)C(C)=C1C2(C)C (stereo not shown)
30.64
COc1cccc(C(=O)O[C@H]2[C@@H]3[C@]4(OC(=S)SC)CO[C@@H]4C[C@H](O)[C@@]3(C)C(=O)[C@H](OC(C)=O)C3=C(C)[C@@H](OC(=O)[C@H](O)[C@@H](NC(=O)c4ccccc4)c4ccccc4)C[C@]2(O)C3(C)C)c1
11.32
CC(=O)OC1C(=O)C2(C)C(O)CC3OCC3(OC(=O)C3CC3)C2C(OC(=O)c2ccc(F)cc2F)C2(O)CC(OC(=O)C(O)C(NC(=O)c3ccccc3)c3ccccc3)C(C)=C1C2(C)C (stereo not shown)
3.86

Fill in: 116/VM46 R/S ratio for `COc1ccc(OC)c(C(=O)O[C@H]2[C@@H]3[C@]4(OC(=O)C5CC5)CO[C@@H]4C[C@H](O)[C@@]3(C)C(=O)[C@H](OC(C)=O)C3=C(C)[C@@H](OC(=O)[C@H](O)[C@@H](NC(=O)c4ccccc4)c4ccccc4)C[C@]2(O)C3(C)C)c1` = 25.06
